# Maximal activation (OD655) per record follows
# SYSTEM_UNDER_TEST: human CD40 on cells (HEK293 stable transfectants, HEK-Blue CD40 cells, human B cells, monocytic cells, … (human, UniProt P25942 21-277))
# Sequence (P25942 21-277 limits assumed): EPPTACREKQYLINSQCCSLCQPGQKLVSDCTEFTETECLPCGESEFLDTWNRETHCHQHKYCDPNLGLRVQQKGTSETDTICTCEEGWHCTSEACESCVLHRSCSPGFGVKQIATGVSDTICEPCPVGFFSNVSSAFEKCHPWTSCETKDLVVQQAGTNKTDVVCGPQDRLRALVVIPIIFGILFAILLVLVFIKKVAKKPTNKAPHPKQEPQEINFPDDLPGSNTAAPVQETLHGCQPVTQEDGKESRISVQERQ
# ASSAY_INFO: cell-based or functional assay
Report only the number, with the unit OD655 understood.

INSERT INTO assay_data (binder, test_result) VALUES
  ('huAb9-2 (antibody, human IgG1, V domains shown, human IgG1, kappa) VH: EVQLQESGPGLVKPSETLSLTCTVSGYSITSNYYWNWIRQPPGKGLEWMGYIRYDGSNNYNPSLKNRVTISRDTSKNQFSLKLSSVTAADTAVYYCARLDYWGQGTTVTVSS VL: DAVMTQTPLSLSVTPGQPASISCRSSQSLENTNGNTFLNWFLQKPGQSPQLLIYRVSNRFSGVPDRFSGSGSGTDFTLKISRVEAEDVGVYFCLQVTHVPFTFGQGTKLEIK', 0.27),
  ('huAb9-6 (antibody, human IgG1, V domains shown, human IgG1, kappa) VH: EVQLQESGPGLVKPSETLSLTCTVSGYSISSNYYWNWIRQPPGKGLEWMGYIRYDGSNNYNPSLKSRVTISRDTSKNQFSLKLSSVTAADTAVYYCARLDYWGQGTTVTVSS VL: DAVMTQTPLSLSVTPGQPASISCRSSQSLENTNGNTFLNWYLQKPGQSPQLLIYRVSNRFSGVPDRFSGSGSGTDFTLKISRVEAEDVGVYYCLQVTHVPFTFGQGTKLEIK', 0.54);

# ---- query binder ----
Query string: Write down Maximal activation (OD655) measured for item huAb8-3 (antibody, human IgG1, V domains shown, human IgG1, kappa) VH: EVQLVQSGAEVKKPGSSVKVSCKASGYTFTDYYINWVRQAPGQGLEWIGWIFPGSGSVYCNEQFKGRVTITVDKSTSTAYMELSSLRSEDTAVYYCASSLGKFAYWGQGTLVTVSS VL: DIQMTQSPSSLSASVGDRVTITCKASQSVVTAVAWYQQKPGKSPKLLIYSASNRYTGVPSRFSGSGSGTDFTLTISSLQPEDFATYFCQQYSSYPYTFGGGTKVEIK
Result string: 0.46
